Target: Liver X receptor (Homo sapiens) (UniProt Q13133+P55055)
Experiment: Transactivation of LXR in human whole blood assessed as induction of ABCA1 after 4 hrs by SYBR-Green quantitative PCR analysis relative to 1-(2,4-difluorobenzyl)-2-oxo-6-(4-phenoxyphenyl)-4-(trifluoromethyl)-1,2-dihydropyridine-3-carbonitrile
Respond with 1 (yes) for Efficacy values of 40% and above, 0 (no) for values below.

> print(dat)
                                 cpd.smiles    group
1  CC(C)(O)c1cn(-c2ccc(-c3cccc(S(C)(=O)=O)c3)cc2)c(-c2ccccc2Cl)n1   0 (no)
2  CC(C)(O)c1cn(-c2ccc(-c3cccc(S(C)(=O)=O)c3)cc2)c(Cc2ccccc2C(F)(F)F)n1   0 (no)
3  CC(C)(O)c1cn(-c2ccc(-c3cccc(S(C)(=O)=O)c3)cc2)c(C(C)(C)c2ccccc2Cl)n1  1 (yes)
4  CS(=O)(=O)c1cccc(-c2ccc(-c3cc(C(F)(F)F)nn3-c3ccccc3Cl)cc2)c1  1 (yes)
5  CC(C)(O)c1cn(-c2ccc(-c3cccc(S(C)(=O)=O)c3)cc2)c(Cc2ccccc2Cl)n1  1 (yes)

// switching to the query molecule
Has CC(C)(O)c1cn(-c2ccc(-c3cccc(S(C)(=O)=O)c3)cc2)c(-c2c(Cl)cccc2Cl)n1 a recorded Efficacy greater than or equal to 40%?
0 (no)

---

Assay: Plasma concentration in mouse at 30 mg/kg, po measured at 4 hrs post dose
Format: ADME, organism-based
Set-up: dose 30 mg/kg, route oral
value.type: log10 concentration at 4 h (log10 of the value in µM)
Please note: log10 values; quantity concentration at 4 h; unit µM.

> print(dat)
                                 cpd.smiles  result
1  CS(=O)(=O)c1cccc(-c2ccc(-c3cc(C(F)(F)F)nn3-c3ccccc3C(F)(F)F)s2)c1    0.84
2  CC(C)(O)c1cn(-c2ccc(-c3cccc(S(C)(=O)=O)c3)cc2)c(Cc2ccccc2C(F)(F)F)n1    0.78

Entry CC(C)(O)c1cn(-c2ccc(-c3cccc(S(C)(=O)=O)c3)cc2)c(-c2c(Cl)cccc2Cl)n1 needs its log10 concentration at 4 h filled in; supply it.
1.27

Entry CC(C)(O)c1cn(-c2ccc(-c3cccc(S(C)(=O)=O)c3)cc2)c(-c2ccccc2Cl)n1 needs its log10 concentration at 4 h filled in; supply it.
1.15

Entry CS(=O)(=O)c1cccc(-c2ccc(-c3cc(C(F)(F)F)nn3-c3ccccc3Cl)cc2)c1 needs its log10 concentration at 4 h filled in; supply it.
-0.22

Entry CS(=O)(=O)c1cccc(-c2cccc(-c3cc(C(F)(F)F)nn3-c3ccccc3Cl)c2)c1 needs its log10 concentration at 4 h filled in; supply it.
0.82

Entry CC(C)(O)c1cn(-c2ccc(-c3cccc(S(C)(=O)=O)c3)cc2)c(C(C)(C)c2ccccc2Cl)n1 needs its log10 concentration at 4 h filled in; supply it.
0.73

Entry CC(C)(O)c1cn(-c2ccc(-c3cccc(S(C)(=O)=O)c3)cc2)c(Cc2ccccc2Cl)n1 needs its log10 concentration at 4 h filled in; supply it.
0.11

Entry CS(=O)(=O)c1cccc(-c2ccc(-n3cc(C(F)(F)F)nc3-c3ccccc3Cl)cc2)c1 needs its log10 concentration at 4 h filled in; supply it.
0.08
